Data provenance: PubChem BioAssay (NCI)

The entries below come with measured TGI values attached.
- System: T-47D breast
- assay-summary: NCI tumour cell line growth inhibition, 48 h
property-label: TGI

>>> value_reported("CCCCCCCCCCCCNC(=O)N[C@H](C(=O)N[C@H]1/C=C/OCCNC(=O)/C=C/[C@H](C(C)C)NC1=O)C(C)C")
"> 100 µM"
>>> value_reported("O=c1[nH]c2ccccc2c(=O)c2cc3ccccc3cc12")
"> 100 µM"
>>> value_reported("CC(=O)C1=C(C)N2C(=NC3=C(CCc4ccccc43)C2c2ccc(Cl)cc2)S1 (stereo not drawn)")
"> 100 µM"

----------
- System: DU-145 prostate
- assay-summary: NCI tumour cell line growth inhibition, 48 h
property-label: GI50

>>> value_reported("COc1ccc2c(c1)OCC1c3cc(OC)ccc3OC21 (centres undefined)")
"> 100000 nM"
>>> value_reported("O=c1c2cc(F)ccc2sc2c(NCCCNCCO)nc3ccc(F)cc3c12")
"1760 nM"
>>> value_reported("Cc1n[nH]c(C)c1-c1c(C)n[nH]c1C")
"1990 nM"
>>> value_reported("O=c1[nH]c(-c2ccncc2)nc2sc3c(c12)CCCCCC3")
"> 100000 nM"
